# assay: mn = molality of the nth substance listed, in mol/kg
# stated.conditions: 298.15 K; 100 kPa; Liquid; Frequency=3 MHz; Sing-around technique in a fixed-path interferometer; m1 = 0.08

# compound, speed of sound (m/s)
rows = [
    ("COc1cc(-c2cc(-c3ccc(Cl)cc3)[nH]c(=O)c2C#N)ccc1O + C[S+](C)[O-]", 1490.5),
    ("COc1cc(-c2cc(-c3ccccc3O)[nH]c(=O)c2C#N)ccc1O + C[S+](C)[O-]", 1491.7),
    ("COc1cc(-c2cc(-c3ccccc3)[nH]c(=O)c2C#N)ccc1O + C[S+](C)[O-]", 1490.3),
    ("COc1cc(-c2cc(-c3ccc(O)cc3)[nH]c(=O)c2C#N)ccc1O + C[S+](C)[O-]", 1492),
]
